Assay system: Mu-type opioid receptor (Homo sapiens)
Sequence (P35372 whole entry): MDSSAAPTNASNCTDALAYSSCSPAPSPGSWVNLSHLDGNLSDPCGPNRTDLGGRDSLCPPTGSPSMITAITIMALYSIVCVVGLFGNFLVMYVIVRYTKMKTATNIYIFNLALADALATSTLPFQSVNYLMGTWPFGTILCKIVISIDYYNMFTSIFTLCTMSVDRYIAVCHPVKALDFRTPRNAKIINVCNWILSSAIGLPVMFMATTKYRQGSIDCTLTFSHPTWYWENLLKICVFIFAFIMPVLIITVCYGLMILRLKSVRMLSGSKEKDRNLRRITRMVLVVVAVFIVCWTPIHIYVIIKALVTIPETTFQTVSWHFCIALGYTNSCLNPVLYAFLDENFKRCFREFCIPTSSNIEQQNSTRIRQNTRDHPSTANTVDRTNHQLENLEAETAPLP
Assay metric: pKi
Formally, pKi is defined as -log10 of the concentration c, with c in mol/L.

Entry under test: `Cc1cc(NC(=O)c2cccc(S(F)(F)(F)(F)F)c2)cc(-n2ccn3nc(-c4cccnc4)cc23)c1` . Its pKi was 5.16

---

Assay system: Delta-type opioid receptor (Homo sapiens)
Sequence (P41143 whole entry): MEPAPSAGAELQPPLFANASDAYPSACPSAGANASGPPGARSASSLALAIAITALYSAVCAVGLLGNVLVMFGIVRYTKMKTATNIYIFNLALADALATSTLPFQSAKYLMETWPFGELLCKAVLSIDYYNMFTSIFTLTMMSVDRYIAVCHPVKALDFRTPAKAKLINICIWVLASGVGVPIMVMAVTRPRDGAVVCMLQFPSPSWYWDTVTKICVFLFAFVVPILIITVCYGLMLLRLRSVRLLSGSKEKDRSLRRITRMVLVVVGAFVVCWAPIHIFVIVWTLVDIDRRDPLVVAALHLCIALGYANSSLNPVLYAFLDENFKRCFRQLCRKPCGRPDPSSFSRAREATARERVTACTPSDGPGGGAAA
Assay protocol: GPCRScan assay: inhibition of DOR
Assay metric: pKi
Formally, pKi is defined as -log10 of the concentration c, with c in mol/L.

Record `Cc1cc(NC(=O)c2cccc(S(F)(F)(F)(F)F)c2)cc(-n2ccn3nc(-c4cccnc4)cc23)c1` has Delta-type opioid receptor (Homo sapiens) pKi equal to 5.76

---

Assay system: Sigma intracellular receptor 2 (Homo sapiens)
Sequence (Q5BJF2 whole entry): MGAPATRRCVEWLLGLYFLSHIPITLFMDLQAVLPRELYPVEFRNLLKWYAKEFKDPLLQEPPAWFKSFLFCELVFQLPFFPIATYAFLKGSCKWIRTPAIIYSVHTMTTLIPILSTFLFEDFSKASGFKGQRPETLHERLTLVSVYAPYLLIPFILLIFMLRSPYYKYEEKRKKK
Assay protocol: GPCRScan assay: inhibition of Sigma 2
Parameters: radioligand conc. used [nm] 5.0, parental cells HEKT
Setup conditions: read-out: Ki
Assay metric: pKi
Formally, pKi is defined as -log10 of the concentration c, with c in mol/L.

Entry under test: `Cc1cc(C)c(-n2ccn3nc(-c4cccnc4)cc23)cc1NC(=O)c1cc(C#N)cc(S(F)(F)(F)(F)F)c1` . Its pKi was 6.01

Entry under test: `Cc1cc(NC(=O)c2cccc(S(F)(F)(F)(F)F)c2)cc(-n2ccn3nc(-c4cccnc4)cc23)c1` . Its pKi was 6.10

---

Exercise: state measured pKi for each of the compounds provided.
Assay protocol: GPCRScan assay: inhibition of GABA/PBR
Set-up: species or system Rattus norvegicus; radioligand conc. used [nm] 0.3 – 2.0, parental cells brain tissue
Formally, pKi is defined as -log10 of the concentration c, with c in mol/L.

Entry under test: `Cc1cc(C)c(-n2ccn3nc(-c4cccnc4)cc23)cc1NC(=O)c1cc(C#N)cc(S(F)(F)(F)(F)F)c1` . Its pKi was 6.66

Entry under test: `Cc1cc(NC(=O)c2cccc(S(F)(F)(F)(F)F)c2)cc(-n2ccn3nc(-c4cccnc4)cc23)c1` . Its pKi was 7.96

---

Assay system: 5-hydroxytryptamine receptor 2B (Homo sapiens, UniProt P41595)
Sequence (P41595 whole entry): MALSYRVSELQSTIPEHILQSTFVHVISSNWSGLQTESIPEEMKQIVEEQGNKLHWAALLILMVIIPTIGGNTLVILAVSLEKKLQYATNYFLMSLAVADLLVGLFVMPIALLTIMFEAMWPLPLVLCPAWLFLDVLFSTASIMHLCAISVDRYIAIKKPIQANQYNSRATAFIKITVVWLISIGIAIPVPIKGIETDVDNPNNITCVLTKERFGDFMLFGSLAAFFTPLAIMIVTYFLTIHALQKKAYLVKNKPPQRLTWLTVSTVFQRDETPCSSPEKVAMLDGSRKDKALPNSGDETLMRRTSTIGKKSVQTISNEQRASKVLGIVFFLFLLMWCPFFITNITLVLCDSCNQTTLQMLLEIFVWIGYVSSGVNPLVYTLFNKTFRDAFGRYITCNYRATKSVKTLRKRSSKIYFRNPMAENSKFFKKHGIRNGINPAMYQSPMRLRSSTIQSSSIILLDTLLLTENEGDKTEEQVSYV
Assay protocol: GPCRScan assay: inhibition of 5-HT2B
Parameters: radioligand conc. used [nm] 1.0 – 2.0, parental cells stable HEK
Assay metric: Ki (nM)
The answer is to be given in nM; state only the numeric part.

Entry under test: `Cc1cc(NC(=O)c2cccc(S(F)(F)(F)(F)F)c2)cc(-n2ccn3nc(-c4cccnc4)cc23)c1` . Its Ki was 2150
